# experimentalProtocol: Cytotoxicity against HEL cells assessed as alteration in cell morphology after 3 days
# Assay type: cell-based
# experimentalSetup: human
// MCC at 72 h lookup, one value per entry

Example results:
>  <compound>
O=c1[nH]c(=O)n([C@H]2C[C@H](O)[C@@H](CO)O2)cc1/C=C/Br

>  <readoutKind>
MCC at 72 h

>  <val>
> 400 µg/mL

$$$$
>  <compound>
Cc1cc(-c2cccc([N+](=O)[O-])c2)cn2c(CSCCc3ccccc3)cnc12

>  <readoutKind>
MCC at 72 h

>  <val>
≥ 100 µg/mL

$$$$
>  <compound>
Cc1cc(-c2ccc(C#N)cc2)cn2c(CSCCc3ccccc3)cnc12

>  <readoutKind>
MCC at 72 h

>  <val>
≥ 20 µg/mL

$$$$

Shifting focus to the molecule that follows.
Inquiry: Which MCC at 72 h is reported for this molecule? Cc1cc(-c2ccsc2)cn2c(CSCCc3ccccc3)cnc12
Reply text: ≥ 4 µg/mL
